Target desc: UniProt Q6XEC0
Experiment notes: β-lactamase enzyme inhibition assay, Class D oxacillinase
Particulars: read-out: OXA-48
pIC50: −log10 of the molar value.
Parameter: pIC50. Scope: all listed entries.

compound=NOCC(=O)NCc1cn(CC(=O)N[C@H]2Cc3cccc(C(=O)O)c3OB2O)nn1 experimental_value="6.00 to 7.00"

[in] Entry `O=C(Cn1cc2c(n1)CNC2)N[C@H]1Cc2cccc(C(=O)O)c2OB1O` has what pIC50?
[out] 5.00 to 6.00

[in] What do you get for `CC(C)(CN)CNC(=O)c1cn(CC(=O)N[C@H]2Cc3cccc(C(=O)O)c3OB2O)nn1` ?
[out] 5.00 to 6.00

[in] // same read-out, input: `Cc1nnn(CC(=O)N[C@H]2Cc3cccc(C(=O)O)c3OB2O)c1CN`
[out] > 7.00

[in] And then `NCCn1cnc(C(=O)N[C@H]2Cc3cccc(C(=O)O)c3OB2O)n1` , what is it?
[out] 4.00 to 5.00

[in] Input `CC(C)(C(=O)N[C@H]1Cc2cccc(C(=O)O)c2OB1O)n1cc(CNC(=N)N)nn1`
[out] 6.00 to 7.00

[in] Next record, please: `NCCn1cnnc1CC(=O)N[C@H]1Cc2cccc(C(=O)O)c2OB1O`
[out] 6.00 to 7.00

[in] Same lookup for `O=C(Cn1cc(CO)nn1)N[C@H]1Cc2cccc(C(=O)O)c2OB1O` , please.
[out] 6.00 to 7.00

* * *

Target desc: OXA-48 (UniProt Q6XEC0)
Experiment notes: β-lactamase enzyme inhibition assay, Class D oxacillinase
Particulars: read-out: OXA-48
Entries and their IC50 values follow.

[in] Give the measured IC50 of O=C(Cn1ccc(B(O)O)n1)N[C@H]1Cc2cccc(C(=O)O)c2OB1O [Example 116] .
[out] 100 to 1000 nM

[in] Same lookup for NCC(O)Cc1cn(CC(=O)N[C@H]2Cc3cccc(C(=O)O)c3OB2O)nn1 (some centres unmarked) [Example 92] , please.
[out] 1000 to 10000 nM

[in] Repeat with O=C(Cn1nnc(CN2CCOCC2)c1CN1CCOCC1)N[C@H]1Cc2cccc(C(=O)O)c2OB1O [Example 32]
[out] 100 to 1000 nM

[in] For NCCCNC(=O)c1cn(CC(=O)N[C@H]2Cc3cccc(C(=O)O)c3OB2O)nn1 [Example 65] then?
[out] 100 to 1000 nM

[in] Query CC(C)NCCn1nnnc1CC(=O)N[C@H]1Cc2cccc(C(=O)O)c2OB1O [Example 52] next
[out] 1000 to 10000 nM

[in] Also NCCOCc1cn(CC(=O)N[C@H]2Cc3cccc(C(=O)O)c3OB2O)nn1 [Example 34] ?
[out] 1000 to 10000 nM

[in] Item: CNCCNC(=O)c1cn(CC(=O)N[C@H]2Cc3cccc(C(=O)O)c3OB2O)nn1 [Example 87]
[out] 1000 to 10000 nM

[in] Same thing, different compound: NCC(=O)NCc1cn(CC(=O)N[C@H]2Cc3cccc(C(=O)O)c3OB2O)nn1 [Example 76]
[out] 100 to 1000 nM

* * *

// reported pIC50 for each item listed
Target desc: SHV-5 (Klebsiella pneumoniae, UniProt P0A3M1)
Sequence (P0A3M1 22-286): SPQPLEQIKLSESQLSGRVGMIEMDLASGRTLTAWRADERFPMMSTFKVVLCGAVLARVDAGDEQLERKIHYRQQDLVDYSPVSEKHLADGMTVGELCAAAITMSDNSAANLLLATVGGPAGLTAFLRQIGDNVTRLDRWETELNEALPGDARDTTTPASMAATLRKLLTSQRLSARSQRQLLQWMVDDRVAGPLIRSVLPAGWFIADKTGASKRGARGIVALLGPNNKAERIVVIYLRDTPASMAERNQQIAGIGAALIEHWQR
Experiment notes: β-lactamase enzyme inhibition assay, SHV-5 (cefotaxime substrate)
pIC50: −log10 of the molar value.

Observe how each entry below is paired with its result.
compound=NCc1cc(-c2cn(CC(=O)N[C@H]3Cc4cccc(C(=O)O)c4OB3O)nn2)cs1 readout_kind=pIC50 experimental_value="> 7.00"
compound=O=C(Cn1cc2c(n1)CNC2)N[C@H]1Cc2cccc(C(=O)O)c2OB1O readout_kind=pIC50 experimental_value="> 7.00"
compound=O=C(Cc1nnn(C2CNC2)n1)N[C@H]1Cc2cccc(C(=O)O)c2OB1O readout_kind=pIC50 experimental_value="> 7.00"

[in] Data request, read-out pIC50, for `NCc1cn(C[C@H](N)C(=O)N[C@H]2Cc3cccc(C(=O)O)c3OB2O)nn1`
[out] 4.00 to 5.00

* * *

Target desc: SHV-5 (Klebsiella pneumoniae, UniProt P0A3M1)
Experiment notes: β-lactamase enzyme inhibition assay, SHV-5 (cefotaxime substrate)
Readout kind: IC50

molecule="O=C(Cn1cc(-c2ccccn2)nn1)N[C@H]1Cc2cccc(C(=O)O)c2OB1O [Example 10]" target_desc="SHV-5 (Klebsiella pneumoniae, UniProt P0A3M1)" experimental_value="< 100 nM"

[in] Form field: reported IC50 of CN(C)Cc1nnn(CC(=O)N[C@H]2Cc3cccc(C(=O)O)c3OB2O)c1CN(C)C [Example 38]
[out] 100 to 1000 nM

[in] Input N=CNCc1cn(CC(=O)N[C@H]2Cc3cccc(C(=O)O)c3OB2O)nn1 [Example 22]
[out] 100 to 1000 nM

[in] Please answer likewise for NCCCNC(=O)c1cn(CC(=O)N[C@H]2Cc3cccc(C(=O)O)c3OB2O)nn1 [Example 65]
[out] < 100 nM

* * *

Target desc: VIM-2 (Escherichia coli)
Construct: made in house; host or cells: E. coli BL21(DE3)
Experiment notes: β-lactamase enzyme inhibition assay, VIM-2 (nitrocefin substrate)
Type: biochemical
Particulars: Class B; nitrocefin substrate, 486 nm; read-out: VIM-2
Experimental: For Vim-2 metallo β-lactamase, the procedure was identical with the following exceptions, first the protein was not pH adjusted to pH 5 with 50 mM sodium acetate, second, the chromatography step was changed to a 5 ml Q sepharose anion exchange column pre-equilibrated with 50 mM Hepes pH 7.5, and elution of the protein was achieved by a linear gradient of NaCl (0-600 mM). […]
pIC50: −log10 of the molar value.
pIC50: recorded values

Consider the following illustrative entries.
molecule="NCc1nnn(CC(=O)N[C@H]2Cc3cccc(C(=O)O)c3OB2O)c1Cl [Example 107]" experimental_value="> 7.00"
molecule="NCCn1cc(CC(=O)N[C@H]2Cc3cccc(C(=O)O)c3OB2O)nn1 [Example 122]" experimental_value="6.00 to 7.00"
molecule="NCCn1nnnc1CC(=O)N[C@H]1Cc2cccc(C(=O)O)c2OB1O [Example 41]" experimental_value="> 7.00"

[in] Look up pIC50 for this molecule: NCCNC(=O)c1cn(CC(=O)N[C@H]2Cc3cccc(C(=O)O)c3OB2O)nn1 [Example 37]
[out] > 7.00

[in] Let us now turn to NCc1nnc(CC(=O)N[C@H]2Cc3cccc(C(=O)O)c3OB2O)s1 [Example 67]
[out] 6.00 to 7.00

[in] Okay, and NCCn1cc(Cn2nnc(CC(=O)N[C@H]3Cc4cccc(C(=O)O)c4OB3O)n2)nn1 [Example 124] ?
[out] 5.00 to 6.00

[in] Next molecule: Nc1nnc(CC(=O)N[C@H]2Cc3cccc(C(=O)O)c3OB2O)[nH]1 [Example 20]
[out] 6.00 to 7.00

[in] Moving on to Nc1nc(=O)c(Cc2cn(CC(=O)N[C@H]3Cc4cccc(C(=O)O)c4OB3O)nn2)c(N)[nH]1 [Example 64]
[out] 6.00 to 7.00

* * *

Target desc: VIM-2 (Escherichia coli, UniProt Q5U7L7)
Construct: made in house; host or cells: E. coli BL21(DE3)
Experiment notes: β-lactamase enzyme inhibition assay, VIM-2 (nitrocefin substrate)
Format: biochemical
Particulars: Class B; nitrocefin substrate, 486 nm; read-out: VIM-2
Method: For Vim-2 metallo β-lactamase, the procedure was identical with the following exceptions, first the protein was not pH adjusted to pH 5 with 50 mM sodium acetate, second, the chromatography step was changed to a 5 ml Q sepharose anion exchange column pre-equilibrated with 50 mM Hepes pH 7.5, and elution of the protein was achieved by a linear gradient of NaCl (0-600 mM). […]
pIC50: −log10 of the molar value.
The following compounds are listed with their measured pIC50 values.

Below, 7 compounds whose answers are already recorded.
compound="O=C(Cn1cc(C2CCNC2)nn1)N[C@H]1Cc2cccc(C(=O)O)c2OB1O (some centres unmarked) [Example 89]" experimental_value="6.00 to 7.00"
compound="CCOC(=O)c1nnn(CC(=O)N[C@H]2Cc3cccc(C(=O)O)c3OB2O)c1C(=O)OCC [Example 11]" experimental_value="5.00 to 6.00"
compound="O=C(Cn1cc(-c2cccnc2)nn1)N[C@H]1Cc2cccc(C(=O)O)c2OB1O [Example 12]" experimental_value="5.00 to 6.00"
compound="NCc1cn(CCC(=O)N[C@H]2Cc3cccc(C(=O)O)c3OB2O)nn1 [Example 30]" experimental_value="6.00 to 7.00"
compound="CSCC[C@@H](C(=O)N[C@H]1Cc2cccc(C(=O)O)c2OB1O)n1cc(CN)nn1 [Example 115]" experimental_value="6.00 to 7.00"
compound="Nc1n[nH]c2ncc(-c3cn(CC(=O)N[C@H]4Cc5cccc(C(=O)O)c5OB4O)nn3)cc12 [Example 36]" experimental_value="5.00 to 6.00"
compound="NCC(=O)NCc1cn(CC(=O)N[C@H]2Cc3cccc(C(=O)O)c3OB2O)nn1 [Example 76]" experimental_value="> 7.00"

Query compound follows.
[in] Look up pIC50: NC1CN(C(=O)c2cn(CC(=O)N[C@H]3Cc4cccc(C(=O)O)c4OB3O)nn2)C1 [Example 80]
[out] 6.00 to 7.00

Provenance of the data: patent US11046716B2
